test system: MDA-MB-361 (361); assay: CCK8 anticancer activity / cytotoxicity test, 361; assay type: cell-based
pIC50: −log10 of the molar value.
Metric name: pIC50

| Molecule | Meas value |
| --- | --- |
| COc1ccc(-c2ccc3ccc4ccc(-c5ccc(OC)cc5)nc4c3n2)cc1.Cc1cc2ccc1OCCOCCOCCOCCOCCOc1ccc(cc1C)-c1ccc3ccc4ccc-2nc4c3n1.F[P-](F)(F)(F)(F)F.[Cu+] [Compound C1] | 5.19 |

---

tested on: HTB22; test: CCK8 anticancer activity / cytotoxicity test, HTB22; format: cell-based; conditions: 48 h, read-out: Approximate IC50, primary screening
pIC50: −log10 of the molar value.
Metric name: pIC50

| Smiles str | Measurement target | Metric name | Meas value |
| --- | --- | --- | --- |
| CCCCCC1=C/C(=C/c2[nH]c(-c3ccc[nH]3)cc2OC)N=C1C | HTB22 | pIC50 | < 4.12 |

---

system: MCF10A; experiment: CCK8 cytotoxicity test on normal cell line MCF10A; details: read-out: IC50, secondary cytotoxicity test; MCF10A normal cell line, 48 h, Table S4
Metric name: IC50 (nM)

| Smiles str | Meas value |
| --- | --- |
| CCC1=NC(=Cc2[nH]c(-c3ncc[nH]3)cc2OC)C=C1.CCC1=NC(=Cc2[nH]c(-c3ncc[nH]3)cc2OC)C=C1.F[P-](F)(F)(F)(F)F.[Cu+] | 1400 |

---

test system: MCF10A; assay: CCK8 cytotoxicity test on normal cell line MCF10A
pIC50: −log10 of the molar value.

| Compound | pIC50 |
| --- | --- |
| CCC1=NC(=Cc2[nH]c(-c3cccn3C(=O)OC(C)(C)C)cc2OC)C=C1 [L ^7] | 5.47 |
| COc1ccc(-c2ccc3ccc4ccc(-c5ccc(OC)cc5)nc4c3n2)cc1.Cc1cc2ccc1OCCOCCOCCOCCOCCOc1ccc(cc1C)-c1ccc3ccc4ccc-2nc4c3n1.F[P-](F)(F)(F)(F)F.[Cu+] [Compound C1] | 6.00 |

---

# pIC50 annotations
system: CRL-1620 (CRL); experiment: CCK8 anticancer activity / cytotoxicity test, CRL; assay type: cell-based; settings: CRL, 48 h, narrow concentration range; read-out: IC50, secondary cytotoxicity test
pIC50: −log10 of the molar value.

| Smiles str | pIC50 |
| --- | --- |
| CCC1=N/C(=C\c2[nH]c(-c3cccn3C(=O)OC(C)(C)C)cc2OC)C=C1 | 6.39 |
| CCC1=N/C(=C\c2[nH]c(-c3ccc4cc[nH]c4c3)cc2OC)C=C1 | 5.19 |
| CCC1=NC(=Cc2[nH]c(-c3ncc[nH]3)cc2OC)C=C1.CCC1=NC(=Cc2[nH]c(-c3ncc[nH]3)cc2OC)C=C1.F[P-](F)(F)(F)(F)F.[Cu+] | 5.80 |

---

system: MDA-MB-231 (231); test: CCK8 anticancer activity / cytotoxicity test, 231; format: cell-based, human; conditions: Homo sapiens, MDA-MB-231; 231, 48 h, narrow concentration range; read-out: IC50, secondary cytotoxicity test
pIC50: −log10 of the molar value.

| Smiles str | pIC50 |
| --- | --- |
| CCC1=N/C(=C\c2[nH]c(-c3cccn3C(=O)OC(C)(C)C)cc2OC)C=C1 | 7.12 |
| CCC1=N/C(=C\c2[nH]c(-c3ccc4cc[nH]c4c3)cc2OC)C=C1 | 5.46 |

---

test system: MDA-MB-361 (361); assay: CCK8 anticancer activity / cytotoxicity test, 361; format: cell-based; conditions: Homo sapiens, MDA-MB-361, 48 h, read-out: Approximate IC50, primary screening, 361, 48 h, 10 times serial dilution
pIC50: −log10 of the molar value.

| Smiles str | Measurement target | pIC50 |
| --- | --- | --- |
| CCCCCC1=C/C(=C/c2[nH]c(-c3ccc[nH]3)cc2OC)N=C1C | MDA-MB-361 (361) | < 5.12 |

---

tested on: HTB131; assay: CCK8 anticancer activity / cytotoxicity test, HTB131; type: cell-based; conditions: HTB131, 48 h, narrow concentration range; read-out: IC50, secondary cytotoxicity test

| Smiles str | IC50 (nM) |
| --- | --- |
| CCC1=N/C(=C\c2[nH]c(-c3cccn3C(=O)OC(C)(C)C)cc2OC)C=C1 | 139 |
| CCC1=N/C(=C\c2[nH]c(-c3ccc4cc[nH]c4c3)cc2OC)C=C1 | 12600 |
| CCC1=NC(=Cc2[nH]c(-c3ncc[nH]3)cc2OC)C=C1.CCC1=NC(=Cc2[nH]c(-c3ncc[nH]3)cc2OC)C=C1.F[P-](F)(F)(F)(F)F.[Cu+] | 2170 |

---

test system: MDA-MB-361 (361); test: CCK8 anticancer activity / cytotoxicity test, 361; format: cell-based; details: Homo sapiens, MDA-MB-361; 361, 48 h, Table S4; read-out: IC50, secondary cytotoxicity test
pIC50: −log10 of the molar value.

| Smiles str | pIC50 |
| --- | --- |
| CCC1=N/C(=C\c2[nH]c(-c3cccn3C(=O)OC(C)(C)C)cc2OC)C=C1 | 5.24 |

---

# IC50 annotations
tested on: HTB131; assay: CCK8 anticancer activity / cytotoxicity test, HTB131; type: cell-based; settings: HTB131, 48 h, 10 times serial dilution; read-out: Approximate IC50, primary screening

| Molecule | Measurement target | IC50 |
| --- | --- | --- |
| CCC1=NC(=Cc2[nH]c(-c3ccn[nH]3)cc2OC)C=C1.CCC1=NC(=Cc2[nH]c(-c3ccn[nH]3)cc2OC)C=C1.F[P-](F)(F)(F)(F)F.[Cu+] | HTB131 | 10200 nM |
| CCC1=N/C(=C\c2[nH]c(-c3cccn3C(=O)OC(C)(C)C)cc2OC)C=C1 | HTB131 | 75 to 750 nM |
| CC(=O)O[C@H]1C(=O)[C@@]2(C)[C@H]([C@H](OC(=O)c3ccccc3)[C@]3(O)C[C@H](OC(=O)[C@H](O)[C@@H](NC(=O)c4ccccc4)c4ccccc4)C(C)=C1C3(C)C)[C@]1(OC(C)=O)CO[C@@H]1C[C@@H]2O [Taxol, paclitaxel, reference compound] | HTB131 | 57 nM |

---

tested on: MDA-MB-231 (231); experiment: CCK8 anticancer activity / cytotoxicity test, 231; format: cell-based, human; details: 231, 48 h, narrow concentration range; read-out: IC50, secondary cytotoxicity test

| Smiles str | IC50 |
| --- | --- |
| CCC1=NC(=Cc2[nH]c(-c3ncc[nH]3)cc2OC)C=C1.CCC1=NC(=Cc2[nH]c(-c3ncc[nH]3)cc2OC)C=C1.F[P-](F)(F)(F)(F)F.[Cu+] | 2860 nM |

---

# IC50 annotations
test system: MDA-MB-231BR (231BR); assay: CCK8 anticancer activity / cytotoxicity test, 231BR; format: cell-based; conditions: 231BR, 48 h, 10 times serial dilution; read-out: Approximate IC50, primary screening

| Compound | Measurement target | Comparison operator | IC50 (µM) |
| --- | --- | --- | --- |
| CCC1=N/C(=C\c2[nH]c(-c3ccc4cc[nH]c4c3)cc2OC)C=C1 | MDA-MB-231BR (231BR) | = | 3.1 |
| CC(=O)O[C@H]1C(=O)[C@@]2(C)[C@H]([C@H](OC(=O)c3ccccc3)[C@]3(O)C[C@H](OC(=O)[C@H](O)[C@@H](NC(=O)c4ccccc4)c4ccccc4)C(C)=C1C3(C)C)[C@]1(OC(C)=O)CO[C@@H]1C[C@@H]2O [Taxol, paclitaxel, reference compound] | MDA-MB-231BR (231BR) | = | 0.039 |
| CCC1=N/C(=C\c2[nH]c(-c3ccn[nH]3)cc2OC)C=C1 | MDA-MB-231BR (231BR) | > | 168 |

---

tested on: MDA-MB-231 (231); assay: CCK8 anticancer activity / cytotoxicity test, 231; type: cell-based, human

| Smiles str | IC50 / nM |
| --- | --- |
| CCC1=NC(=Cc2[nH]c(-c3cccn3C(=O)OC(C)(C)C)cc2OC)C=C1 | 75.8 |
| COc1ccc(-c2ccc3ccc4ccc(-c5ccc(OC)cc5)nc4c3n2)cc1.Cc1cc2ccc1OCCOCCOCCOCCOCCOc1ccc(cc1C)-c1ccc3ccc4ccc-2nc4c3n1.F[P-](F)(F)(F)(F)F.[Cu+] | 403 |
